protocol notes: in vitro
measurement setup: Chinese hamster

compound: CC(=O)Nc1cc([As](=O)(O)O)ccc1O [Acetarsol]
viability: ~100%

----------
protocol notes: in vitro
measurement setup: human

compound: CC(=O)Nc1cc([As](=O)(O)O)ccc1O [Acetarsol]
viability: ~100%

----------
Test system: human peripheral blood mononuclear cells (hPBMC)
protocol notes: cells
measurement setup: PBMC, 24 h
experimental readout: IC50

molecule: O=[As]O [Arsenite, Sodium meta-arsenite]
result: 40.1 µM
--
molecule: CC(=O)Nc1cc([As](=O)(O)O)ccc1O [Acetarsol]
result: > 1000 µM
